target: human SGLT2 (Homo sapiens (Human), UniProt P31639); experiment: hSGLT2 inhibitory activity, sodium-dependent 14C-AMG glucose transport assay in CHO cells expressing hSGLT2; details: 14C-AMG uptake, CHO cells expressing hSGLT2, 37° C. for 2 h
Sequence (P31639 whole entry): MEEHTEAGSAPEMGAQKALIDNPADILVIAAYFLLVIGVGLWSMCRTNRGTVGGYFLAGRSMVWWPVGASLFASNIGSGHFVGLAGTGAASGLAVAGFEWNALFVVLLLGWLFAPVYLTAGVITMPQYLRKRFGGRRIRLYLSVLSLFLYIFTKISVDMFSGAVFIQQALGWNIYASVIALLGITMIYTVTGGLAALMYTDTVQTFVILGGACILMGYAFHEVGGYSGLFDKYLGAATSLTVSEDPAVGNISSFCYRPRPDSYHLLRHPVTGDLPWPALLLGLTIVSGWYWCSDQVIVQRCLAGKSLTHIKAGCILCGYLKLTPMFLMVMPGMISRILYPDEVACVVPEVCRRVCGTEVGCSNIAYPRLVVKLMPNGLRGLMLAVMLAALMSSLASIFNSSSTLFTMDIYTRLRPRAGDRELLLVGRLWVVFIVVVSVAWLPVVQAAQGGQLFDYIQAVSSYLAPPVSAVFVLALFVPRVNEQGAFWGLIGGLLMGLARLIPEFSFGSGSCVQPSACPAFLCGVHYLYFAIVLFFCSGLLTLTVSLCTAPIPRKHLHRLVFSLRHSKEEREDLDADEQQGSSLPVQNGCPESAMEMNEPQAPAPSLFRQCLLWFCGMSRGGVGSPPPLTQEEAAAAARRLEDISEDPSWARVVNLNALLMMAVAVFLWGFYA
property_measured: IC50 (nM)

The following compounds have reported results that may help.
>>> print(df.to_string())
                                   compound                       experimental_target  unit_string  quantitative_result
0  OC[C@H]1O[C@@H](c2cc(Cc3nnc(-c4ccco4)s3)c(Cl)cc2Cl)[C@H](O)[C@@H](O)[C@@H]1O  human SGLT2 (Homo sapiens (Human), UniProt P31639)           nM                 17.6
1  CCCc1ccc(-c2nnc(Cc3cc(C4O[C@H](CO)[C@@H](O)[C@H](O)[C@H]4O)ccc3Cl)s2)cc1 (stereo partly shown)  human SGLT2 (Homo sapiens (Human), UniProt P31639)           nM                 24.9

(P) OC[C@H]1O[C@@H](c2ccc(Cl)c(Cc3nnc(-c4ccoc4)s3)c2)[C@H](O)[C@@H](O)[C@@H]1O
(Q) OC[C@H]1O[C@@H](c2ccc(Cl)c(Cc3nccnn3)c2)[C@H](O)[C@@H](O)[C@@H]1O
// pick larger IC50 from pair: P vs Q // caller expects the label of the chosen entry
Q
(Q: 261 nM, P: 17.7 nM)

###

molecular target: UniProt P31639; assay: hSGLT2 inhibitory activity, sodium-dependent 14C-AMG glucose transport assay in CHO cells expressing hSGLT2; format: cell-based; details: 14C-AMG uptake, CHO cells expressing hSGLT2, 37° C. for 2 h
pIC50: −log10 of the molar value.
property_measured: pIC50

                                   compound  property_measured  quantitative_result
0  OC[C@H]1O[C@@H](c2ccc(Cl)c(Cc3nnc(-c4ccccc4)s3)c2)[C@H](O)[C@@H](O)[C@@H]1O              pIC50                 7.78
1  OC[C@H]1O[C@@H](c2ccc(Cl)c(Cc3nnc(-c4ccc(Cl)cc4)s3)c2)[C@H](O)[C@@H](O)[C@@H]1O              pIC50                 6.90
2  CC(C)Cc1ccc(Cc2cc([C@@H]3O[C@H](CO)[C@@H](O)[C@H](O)[C@H]3O)ccc2Cl)nn1              pIC50                 6.09
3  OC[C@H]1O[C@@H](c2ccc(Cl)c(Cc3nnc(-c4cccs4)s3)c2)[C@H](O)[C@@H](O)[C@@H]1O              pIC50                 7.84

(P) OC[C@H]1OC(c2ccc(Cl)c(Cc3nnc(C4CCCCC4)s3)c2)[C@H](O)[C@@H](O)[C@@H]1O (stereo partly shown)
(Q) Cc1ccoc1-c1nnc(Cc2cc([C@@H]3O[C@H](CO)[C@@H](O)[C@H](O)[C@H]3O)ccc2Cl)s1
(R) OC[C@H]1O[C@@H](c2ccc(Cl)c(Cc3nnc(-c4ccc(Cl)s4)s3)c2)[C@H](O)[C@@H](O)[C@@H]1O
Rank entries according to their pIC50, from the largest number down. A ranking is expressed here by listing the labels in the requested order.
R, Q, P
(R: 7.74, Q: 6.97, P: 6.27)

###

molecular target: human SGLT2 (Homo sapiens (Human)); experiment: hSGLT2 inhibitory activity, sodium-dependent 14C-AMG glucose transport assay in CHO cells expressing hSGLT2; conditions: 14C-AMG uptake, CHO cells expressing hSGLT2, 37° C. for 2 h
pIC50: −log10 of the molar value.
property_measured: pIC50

                                   compound  quantitative_result
0  OC[C@H]1O[C@@H](c2ccc(Cl)c(Cc3nnc(-c4cnc(-c5ccncc5)s4)s3)c2)[C@H](O)[C@@H](O)[C@@H]1O                 7.14
1  OC[C@H]1O[C@@H](c2ccc(Cl)c(Cc3nnc(-c4ccco4)s3)c2)[C@H](O)[C@@H](O)[C@@H]1O                 8.15
2  OC[C@H]1O[C@@H](c2ccc(Cl)c(Cc3ccc(OC4CCCCC4)nn3)c2)[C@H](O)[C@@H](O)[C@@H]1O                 6.95

(P) Cc1ccc(-c2nnc(Cc3cc([C@@H]4O[C@H](CO)[C@@H](O)[C@H](O)[C@H]4O)ccc3Cl)s2)cn1
(Q) COC(=O)c1ccc(Cc2cc([C@@H]3O[C@H](CO)[C@@H](O)[C@H](O)[C@H]3O)ccc2Cl)nn1
Could you point out whether the larger pIC50 belongs to P or to Q ? Lab log: write the label of the selected item as the result.
P
(P: 7.01, Q: 6.70)

(P) CCCc1nnc(Cc2cc([C@@H]3O[C@H](CO)[C@@H](O)[C@H](O)[C@H]3O)ccc2Cl)s1
(Q) OC[C@H]1O[C@@H](c2ccc(Cl)c(Cc3nnc(-c4ccccn4)s3)c2)[C@H](O)[C@@H](O)[C@@H]1O
Endpoint returns the identifier whose pIC50 is numerically larger, either P or Q . Mark your answer with the label of the selected entry.
Q

(I) OC[C@H]1O[C@@H](c2ccc(Cl)c(Cc3ccc(-c4ccc5c(c4)OCO5)nn3)c2)[C@H](O)[C@@H](O)[C@@H]1O
(II) CCCCCCCCOc1ccc(Cc2cc([C@@H]3O[C@H](CO)[C@@H](O)[C@H](O)[C@H]3O)ccc2Cl)nn1
(III) OC[C@H]1O[C@@H](c2ccc(Cl)c(Cc3nnc(-c4cscn4)s3)c2)[C@H](O)[C@@H](O)[C@@H]1O
(IV) OC[C@H]1O[C@@H](c2ccc(Cl)c(Cc3nnc(-c4cnccn4)s3)c2)[C@H](O)[C@@H](O)[C@@H]1O
List the 4 entries from lowest pIC50 to highest pIC50 value. In your reply, arrange the labels in the requested order.
I, II, III, IV

(I) COc1c(Cc2nnc(-c3ccco3)s2)cc([C@@H]2O[C@H](CO)[C@@H](O)[C@H](O)[C@H]2O)c2ccccc12
(II) OC[C@H]1O[C@@H](c2ccc(Cl)c(Cc3nnc(CC(F)(F)F)s3)c2)[C@H](O)[C@@H](O)[C@@H]1O
(III) CCCCCCCc1nnc(Cc2cc([C@@H]3O[C@H](CO)[C@@H](O)[C@H](O)[C@H]3O)ccc2Cl)s1
(IV) CSc1nnc(Cc2cc([C@@H]3O[C@H](CO)[C@@H](O)[C@H](O)[C@H]3O)ccc2Cl)cc1C
Please list these compounds in decreasing order of pIC50. Arrange the labels as the request states and list them.
I, III, II, IV
(I: 7.97, III: 6.91, II: 6.12, IV: 5.82)

(I) CCCc1ccc(Cc2cc([C@@H]3O[C@H](CO)[C@@H](O)[C@H](O)[C@H]3O)ccc2Cl)nn1
(II) CSc1nnc(Cc2cc([C@@H]3O[C@H](CO)[C@@H](O)[C@H](O)[C@H]3O)ccc2Cl)s1
Identify the entry with the larger pIC50. Options: I and II When you have decided, please share the label of that item.
II
(II: 7.96, I: 6.63)

(a) Cc1ccc2nc(Cc3cc([C@@H]4O[C@H](CO)[C@@H](O)[C@H](O)[C@H]4O)ccc3Cl)nnc2c1
(b) COc1cc(Cl)c(Cc2nnc(-c3ccco3)s2)cc1[C@@H]1O[C@H](CO)[C@@H](O)[C@H](O)[C@H]1O
(c) OC[C@H]1OC(c2ccc(Cl)c(Cc3nnc(-c4cccnc4)s3)c2)[C@H](O)[C@@H](O)[C@@H]1O (stereo partly drawn)
(d) OC[C@H]1O[C@@H](c2ccc(Cl)c(Cc3nnc(-c4cc5ccccc5cn4)s3)c2)[C@H](O)[C@@H](O)[C@@H]1O
I would appreciate it if you could sort these 4 compounds by pIC50, starting from the smallest number. Submit the labels in the order that the ranking request calls for.
a, d, c, b

(a) Cc1cc(Cc2cc([C@@H]3O[C@H](CO)[C@@H](O)[C@H](O)[C@H]3O)ccc2Cl)n[nH]c1=O
(b) Cc1ccc(-c2nnc(Cc3cc(C4O[C@H](CO)[C@@H](O)[C@H](O)[C@H]4O)ccc3Cl)s2)cc1 (stereo partly drawn)
(c) OC[C@H]1O[C@@H](c2ccc(Cl)c(Cc3nnc(-c4cc5ccccc5s4)s3)c2)[C@H](O)[C@@H](O)[C@@H]1O
Form: Sort by [pIC50] Order [ ascending ] # format: label list in the order the request specifies
a, b, c
(a: 6.21, b: 6.99, c: 7.35)

(A) Cc1ccsc1-c1nnc(Cc2cc([C@@H]3O[C@H](CO)[C@@H](O)[C@H](O)[C@H]3O)ccc2Cl)s1
(B) OC[C@H]1O[C@@H](c2cc(Cc3nnc(-c4ccco4)s3)cc3ccccc23)[C@H](O)[C@@H](O)[C@@H]1O
Return label of the item with the larger pIC50. Candidates: A , B . # respond with the chosen item's label
B
